# Test description: Determination of the transfer rate into the urine and calculation of the index
# Format: in vivo, male rats of SD strain
# Experimental context: rat; male SD rats, 100 mg/Kg oral, 0-6 hours, measured as urease inhibitory action in excreted urine
Quantity kind: dose excreted at 6 h (%)
Return type: number; implicit unit %.

// worked examples, dose excreted at 6 h included
>>> value_observed("O=C(CNC(=O)c1ccc(Cl)cc1)NO [Control compound I, reference compound]")
1
>>> value_observed("COc1ccc(C(=O)NCC(=O)NO)cc1 [Compound A]")
12
>>> value_observed("O=C(CNC(=O)c1ccco1)NO [Compound R, 2-(2-furoilamino)-acetohydroxamic acid]")
15.5
>>> value_observed("CC(=O)Nc1cccc(C(=O)NCC(=O)NO)c1 [Compound M]")
15

Now for another entry.
Query COc1cccc(C(=O)NCC(=O)NO)c1 [Compound B] yields dose excreted at 6 h of 12.3

====

Measured LD50 by item
# Test description: Acute toxicity (LD50), oral
# Experimental context: rat, in vivo; oral, male SD rats about 230 g

>>> value_observed("O=C(CNC(=O)c1ccco1)NO [Compound R, 2-(2-furoilamino)-acetohydroxamic acid]")
"> 5000 mg/kg"

Now for another entry.
Query CC(=O)Nc1cccc(C(=O)NCC(=O)NO)c1 yields LD50 of > 5000 mg/kg

====

# Test description: Acute toxicity (LD50), oral
# Experimental context: rat, in vivo, po
Quantity kind: LD50

>>> value_observed("O=C(CNC(=O)c1ccc(Cl)cc1)NO [Control compound I, reference compound]")
"> 5000 mg/kg"
>>> value_observed("COc1ccc(C(=O)NCC(=O)NO)cc1 [Compound A]")
"> 5000 mg/kg"

Now for another entry.
Query COc1cccc(C(=O)NCC(=O)NO)c1 [Compound B] yields LD50 of > 5000 mg/kg
